- Target Or Test System: T1, human IL-17A/F heterodimer (human, UniProt Q16552 24-155; Q96PD4 31-163, limits assumed, biotinylated with Sulfo-NHS-LC-Biotin in the AlphaScreen assays only)
- T1 construct: also called hIL-17A/F
- T1 sequence (Q16552 24-155 limits assumed, chain 1 of 2): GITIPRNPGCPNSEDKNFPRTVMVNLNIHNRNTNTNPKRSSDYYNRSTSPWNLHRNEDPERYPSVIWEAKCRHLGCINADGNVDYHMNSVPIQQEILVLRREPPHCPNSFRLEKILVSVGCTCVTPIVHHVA
- T1 sequence (Q96PD4 31-163 limits assumed, chain 2 of 2): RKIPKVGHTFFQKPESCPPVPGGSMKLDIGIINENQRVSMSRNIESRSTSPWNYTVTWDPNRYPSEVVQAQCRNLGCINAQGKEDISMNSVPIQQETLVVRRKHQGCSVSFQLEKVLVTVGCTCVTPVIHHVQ
- Assay Notes: AlphaScreen competition, hIL-17A/F - IL-17RC-Fc
Quantity Kind: pIC50
Schema: pIC50 number; meaning minus log10 of the concentration expressed in molar units.

[in] What value of measured pIC50 is listed for 17C01 (VHH, Class 4 Nanobody (cross-reactive: anti-IL-17A, IL-17F and IL-17A/F); not shown: c-myc, His6 tag) VHH: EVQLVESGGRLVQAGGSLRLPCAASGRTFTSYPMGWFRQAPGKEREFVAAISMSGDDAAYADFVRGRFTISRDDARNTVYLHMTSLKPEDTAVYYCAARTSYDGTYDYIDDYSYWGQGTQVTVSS ?
[out] 9.10

[in] Moving on to 01D06 (VHH, Class 2 Nanobody (anti-IL-17A and IL-17A/F); not shown: c-myc, His6 tag) VHH: EVQLVESGGGLVQAGGSLRLSCAADGRTFSTYGMTWFRQVPGKEREFVAHIPRSTYSPYYANSVKGRFTIARDDAKSTVYLQMNSLKPEDTAVYYCAVFTGGTYYVPTAYDYWGQGTQVTVSS
[out] 9.70
